# MEASUREMENT PROTOCOL: Cytotoxicity determination in HepG2.2.15 cells (CCK-8)
# Assay type: cell-based
# CONDITION DESCRIPTION: human, 6 days treatment, CCK-8, highest concentration 100 uM
Measured CC50 at 6 days values are reported for all entries that follow.
Provide the reading as a plain figure in µM.

Input line: Entry COC(=O)C1=C([C@H]2CC[C@H](c3nc(C(=O)O)co3)CC2)NC(c2ncc(F)cc2F)=NC1c1ccc(F)c(F)c1Cl (single isomer, unassigned) : reported CC50 at 6 days = ?
Output line: 14.3

Input line: Endpoint output: CC50 at 6 days of CCOC(=O)C1=C(C2CCN(c3cc(C(=O)O)ccn3)CC2)NC(c2nccs2)=NC1c1ccc(F)c(F)c1Cl (single isomer, unassigned) . Value?
Output line: 10.2

Input line: Entry COC(=O)C1=C([C@H]2CC[C@H](c3nc(C(=O)O)co3)CC2)NC(c2nccs2)=NC1c1ccc(F)cc1C (single isomer, unassigned) has what CC50 at 6 days?
Output line: 17.4

Input line: Consider the compound shown here: CCOC(=O)C1=C(C2CCN(c3nc(COC)c(C(=O)O)s3)CC2)NC(c2nccs2)=NC1c1ccc(F)c(F)c1Cl (single isomer, unassigned) What is its recorded CC50 at 6 days?
Output line: 9.74

Input line: Item under review: CCOC(=O)C1=C(C2CCN(c3ncc(C)c(C(=O)O)n3)CC2)NC(c2nccs2)=NC1c1cccc(F)c1Cl (single isomer, unassigned) . Reported CC50 at 6 days?
Output line: 11.2

Input line: Entry CCOC(=O)C1=C(C2CCN(c3nncs3)CC2)NC(c2nccs2)=NC1c1ccc(F)c(F)c1Cl (single isomer, unassigned) has what CC50 at 6 days?
Output line: 9.81

###

# MEASUREMENT PROTOCOL: Cytotoxicity determination in HepG2.2.15 cells (CCK-8)
# Format: cell-based
# CONDITION DESCRIPTION: human, 6 days treatment, CCK-8, highest concentration 100 uM
Hi! Could you tag entries with CC50 at 6 days below 8 µM as label 1, and those at or above as label 0? Much appreciated.

Sample answers from the record:
>  <COMPOUND>
CCOC(=O)C1=C(C2CCN(c3ncc(CC(=O)O)cn3)CC2)NC(c2nccs2)=NC1c1ccc(F)cc1Cl (single isomer, unassigned) [II-21-B]

>  <CLASS ASSIGNMENT>
label 1

$$$$
>  <COMPOUND>
COC(=O)C1=C(C2CN(C(=O)c3cnoc3C)C2)NC(c2nccs2)=NC1c1ccc(F)cc1Cl (single isomer, unassigned) [II-88-B]

>  <CLASS ASSIGNMENT>
label 0

$$$$
>  <COMPOUND>
CCOC(=O)C1=C([C@H]2CC[C@H](n3nccc3C(=O)O)CC2)NC(c2nccs2)=NC1c1ccc(F)c(F)c1Cl (single isomer, unassigned) [Compound I-39-C]

>  <CLASS ASSIGNMENT>
label 1

$$$$
>  <COMPOUND>
COC(=O)C1=C(C2CCN(c3ncc(CC(=O)O)cn3)CC2)NC(c2nccs2)=NC1c1ccc(F)c(F)c1Cl (single isomer, unassigned) [II-29-B]

>  <CLASS ASSIGNMENT>
label 0

$$$$
>  <COMPOUND>
CCOC(=O)C1=C(C2CCN(c3ncc(Cl)c(C(=O)O)n3)CC2)NC(c2nccs2)=NC1c1ccc(F)c(F)c1Cl (single isomer, unassigned) [II-61-B]

>  <CLASS ASSIGNMENT>
label 1

$$$$

# evaluate next
Input line: Take the compound COC(=O)C1=C(C2CCN(c3ncc(C(=O)O)c(C)n3)CC2)NC(c2nccs2)=NC1c1ccc(F)cc1Cl (single isomer, unassigned) [II-16-B] and say whether its CC50 at 6 days is less than 8 µM.
Output line: label 1
